Tested on: ATCC 8456 cell free extract
Assay: Conversion of free fatty acids into α-olefins by ATCC 8456 cell free extract
Format: biochemical, Jeotgalicoccus sp. ATCC 8456
Details: co-factor at 1 mM
Experimental: A cell free extract of ATCC 8456 was used to convert free fatty acids into α-olefins. The cell free extract was generated using the following procedure: ATCC 8456 cells were grown in TSBYE medium (3% Tryptic Soy Broth+0.5% Yeast Extract) at 30° C. for 24 h with shaking. […] First, a 5% stock solution of sodium or potassium stearate was made in 1% Tergitol solution (Sigma, St. Louis, Mo.). […] The α-olefins were detected using GC/MS. […]
observed_property: effect of co-factor supplementation on α-olefin synthesis

| smiles_record | reported_value |
| --- | --- |
| NC(=O)C1=CN([C@@H]2O[C@H](COP(=O)(O)OP(=O)(O)OC[C@H]3O[C@@H](n4cnc5c(N)ncnc54)[C@H](O)[C@@H]3O)[C@@H](O)[C@H]2O)C=CC1 | no increase |
| CC(C)(COP(=O)(O)OP(=O)(O)OC[C@H]1O[C@@H](n2cnc3c(N)ncnc32)[C@H](O)[C@@H]1OP(=O)(O)O)[C@@H](O)C(=O)NCCC(=O)NCCS | no increase |
| NC(=O)c1ccc[n+]([C@@H]2O[C@H](COP(=O)([O-])OP(=O)(O)OC[C@H]3O[C@@H](n4cnc5c(N)ncnc54)[C@H](O)[C@@H]3O)[C@@H](O)[C@H]2O)c1 | no increase |
